# key: entry, value: TGI
Tested on: KM12 colon
assayDetails: NCI tumour cell line growth inhibition, 48 h

molecule=CN(C)/C=C/c1c2c(nc3ccccc13)C(=O)c1cccnc1C2=O targetentity="KM12 colon" observedmeasurement="1.56 µM"
molecule=COc1ccc2nc3cc([N+](=O)[O-])ccc3c(Nc3ccc(S(=O)(=O)Nc4ncccn4)cc3)c2c1 targetentity="KM12 colon" observedmeasurement="> 100 µM"
molecule=CN=C1CN=C(OP(=O)(N2CCOCC2)N2CCOCC2)c2cc(Cl)ccc2N1 targetentity="KM12 colon" observedmeasurement="> 100 µM"
molecule="CC(=O)C1C(=O)C(C(C)=O)C2C3C=CC(C3)C12 (stereo not given)" targetentity="KM12 colon" observedmeasurement="> 100 µM"
molecule=C1C[OH+]CCNCC[OH+]CC[OH+]CCN1.N.[Cl-].[Pt+4] targetentity="KM12 colon" observedmeasurement="> 100 µM"
molecule=O=C(Nc1ccccc1Cl)c1ccc(NC2=C(Cl)C(=O)N(C3CCCCC3)C2=O)cc1 targetentity="KM12 colon" observedmeasurement="35.7 µM"

TGI lookup needed for Nc1nc(SCCNC(=O)CCc2ccc(O)c(I)c2)nc2c1ncn2C1OC(CO)C(O)C1O (stereo not given) , thanks.
> 100 µM

Could you tell me which TGI is on file for Cc1ccc2[nH]c(O)c(N=Nc3ccccc3[N+](=O)[O-])c2c1 ?
> 40.3 µM

I would be grateful if you could share the reported TGI for CCN(CCO)CCCC(C)Nc1ccnc2cc(Cl)ccc12 (stereo not given) .
> 100 µM

Need TGI, item CSc1ccc2c(cc1=O)C(NC(=O)c1ccccc1)CCc1cc(O)c(O)c(O)c1-2 (stereo not given)
27.5 µM

---

Recorded GI50, one value per entry.
Tested on: HCT-116 colon
assayDetails: NCI tumour cell line growth inhibition, 48 h

compound=CN[C@@H](Cc1cccc2ccccc12)C(=O)N[C@@H](CC(C)C)B(O)O targetentity="HCT-116 colon" experimentalendpoint=GI50 observedmeasurement="0.0118 µM"
compound=COc1cc2c3c(n(CCCn4cncn4)c(=O)c2cc1OC)-c1cc2c(cc1C3=O)OCO2 targetentity="HCT-116 colon" experimentalendpoint=GI50 observedmeasurement="0.567 µM"
compound=CCOC(=O)Nc1ccc2c(c1)C(=O)N(CC)c1ccccc1O2 targetentity="HCT-116 colon" experimentalendpoint=GI50 observedmeasurement="0.0829 µM"

Find GI50 (HCT-116 colon) for the entry CCc1cccc(NC(=O)Nc2ccc(Oc3ccc4nc(NC(=O)OC)[nH]c4c3)cc2)c1
3.39 µM

Form field - read-out: GI50; system: HCT-116 colon; submitted item: O=c1cc(-c2ccccc2)oc2c1ccc1ccccc12
20.3 µM

Form entry - test system: HCT-116 colon; read-out: GI50; compound: O=C(Nc1ccccc1Cl)c1ccc(NC2=C(Cl)C(=O)N(C3CCCCC3)C2=O)cc1
5.51 µM

Give GI50 (HCT-116 colon) of the following compound: COc1cc2c(/C=C3/C(=O)Nc4ccc(O)cc43)c(Cl)n(Cc3cc(OC)c(OC)c(OC)c3)c2cc1C
2.18 µM

Lab note: need GI50 for CCC[CH2][Sn]1([CH2]CCC)[O]CC[S]1 on HCT-116 colon, anyone have it?
1.16 µM

Notebook: pull reported GI50 for HCT-116 colon, entry CC(=O)Nc1ccc(OC(C)=O)cc1
< 0.01 µM

Recall the recorded GI50 for O=c1oc2ccc(Cl)cc2c(=O)n1-c1ccc(F)cc1F with HCT-116 colon and state it.
2.53 µM

# returns recorded GI50 (system: HCT-116 colon) for COc1ccc(C2CC(c3ccc(OC)cc3O)=NN2c2ccc(S(N)(=O)=O)cc2)cc1 (stereo not drawn)
4.47 µM

Could you share what GI50 was measured for O=[N+]([O-])c1ccc(N=Nc2c(Cl)cc(O)cc2Cl)cc1 , tested on HCT-116 colon?
0.722 µM

# returns recorded GI50 (system: HCT-116 colon) for O=C(c1ccccc1)C1OC1C(=O)c1ccccc1 (stereo not drawn)
2.09 µM

Given the entry O=C(Nc1cccc(C(F)(F)F)c1)c1ccc(NC2=C(Cl)C(=O)N(Cc3ccccc3)C2=O)cc1 , what GI50 was observed with HCT-116 colon?
2.81 µM
